Test system: COLO 205 colon
assay comment: NCI-60 one-dose screen, 48 h
conditions used: 10 µM
This is part of a sample that, as a whole, favours compounds with a hit. Of some 83,000 tested, about 20% had one in any assay. Calls of active or inactive are those of the source. Rule for the calls: active = growth percent below 10; inactive = the rest.
Possible outcomes: TRUE = active, FALSE = inactive

compound=COc1ccccc1S(=O)(=O)Nc1ccc2c(c1)CN(C)C(=O)N2 category_label=FALSE
compound=COc1cc(Cn2c(-c3ccccc3)cc3c2-c2oncc2CC3)cc(OC)c1 category_label=TRUE
compound="CCCCCCCCCCCC(c1ccccc1)N(C)C (stereo not drawn)" category_label=FALSE
compound=Cc1cc(/C=C2\SC(=Nc3ccccc3)N(C3CCCC3)C2=O)c(C)n1-c1ccc(Cl)cc1 category_label=TRUE
compound=Oc1[nH]c2ccccc2c1/C=c1/cc2c(c(-c3ccc(C(F)(F)F)cc3)n1)=Nc1ccccc1-2 category_label=FALSE
compound=CCOC(=O)c1cc2c(n1Cc1ccccc1)-c1oncc1CC2 category_label=FALSE
compound="CCCC(C)c1ccc(OCCCCCCN2CCNCC2)cc1 (stereo not drawn)" category_label=TRUE
compound=COc1cccc(-c2nnc(COc3ccc(-c4nc5ccc(C)cc5[nH]4)cc3OC)o2)c1 category_label=FALSE
compound=Cc1cc(C#Cc2ccccc2)ccc1-n1c(/C=C/c2cc(O)ccc2O)nc2ccccc2c1=O category_label=TRUE
compound=C=CCNC(=S)NN category_label=FALSE
compound=COc1ccc(C(=O)c2sc3nc(-c4cccs4)ccc3c2N)cc1OC category_label=FALSE
compound=COc1ccc(-c2[nH]ncc2-c2cc(OC)c(OC)c(OC)c2)cc1 category_label=TRUE
compound=O=C(N/N=c1/ccoc2cccnc12)N1CCN(c2ncccn2)CC1 category_label=TRUE
compound="COc1ccc(C2C=C(c3ccc(OC)c(OC)c3)N=C3SC=CN32)c(Br)c1 (stereo not drawn)" category_label=FALSE
compound=COc1cc(C(=O)n2nc(N)c3c(C)cc(C)nc32)cc(OC)c1OC category_label=FALSE
compound=COc1cc(-c2cc(/C=C/C(C)=O)[nH]n2)cc(OC)c1OC category_label=FALSE
compound=N=C(N)c1ccc(-c2ccc(-c3cccs3)s2)nc1 category_label=TRUE
compound=O=[N+]([O-])c1ccc(-c2nc(-c3ccccc3)c(-c3ccccc3)n2-c2ccccc2)cc1 category_label=FALSE
compound=COc1ccc(-c2nc(-c3nc4ccc(OC)cc4[nH]3)c3ccccn23)cc1 category_label=FALSE
compound=CCOC(=O)/C(C#N)=C(/C)C1CC1 category_label=FALSE
compound=CCN(CCCNC(=O)Cc1cc(=O)oc2cc(N(C)C)ccc12)CCNc1ccnc2cc(Cl)ccc12 category_label=FALSE
compound="CCCCN(CCCC)c1ccc(C(=NC(C)CCCN(CC)CC)c2ccc(N(C)C)cc2)cc1 (stereo not drawn)" category_label=TRUE
compound="COc1ccc2oc(=O)cc(C3c4ccc([nH]4)C(c4cc(=O)oc5ccc(OC)cc45)c4ccc([nH]4)C(c4cc(=O)oc5ccc(OC)cc45)c4ccc([nH]4)C(c4cc(=O)oc5ccc(OC)cc45)c4ccc3[nH]4)c2c1 (stereo not drawn)" category_label=TRUE
compound=O=C(CCl)N1c2ccccc2Sc2ccc3ccccc3c21 category_label=TRUE
compound="CC(=O)OC1Oc2ccccc2-c2oc(=O)c(-c3ccc(F)cc3)cc21 (stereo not drawn)" category_label=FALSE
compound=CC(=O)n1nc(C(=O)OC(C)(C)C)c2cc(F)c(F)cc21 category_label=FALSE
compound=O=c1cc(CSc2nnc(-c3ccccc3)n2-c2ccc(F)cc2)c2ccc3ccccc3c2o1 category_label=FALSE
compound=CC(=O)/C(=C\c1ccc(Cl)cc1)c1ccccc1 category_label=TRUE
compound=CC(C)/C=N/NC(N)=S category_label=FALSE
compound="CCC1(C)OC(=O)NC1=O (stereo not drawn)" category_label=FALSE
compound=CCOC(=O)c1c(C)n(-c2ccc(Cl)cc2)c2ccc(OC(=O)/C=C/c3ccccc3)cc12 category_label=FALSE
compound=CC(C)CCN(CCCNc1c2c(nc3cc(Cl)ccc13)CCCC2)CCC(C)C category_label=FALSE
compound=COc1cc(C)c2sc3ccccc3c(=O)c2c1NCCN(C)C category_label=FALSE
compound=COc1ccc(-c2nc3sc(-c4ccccc4)c(-c4ccccc4)n3c2/C=C/c2ccc(F)cc2)cc1 category_label=FALSE
compound=CCOC(=O)c1cc(-c2ccccc2)nc(N)n1 category_label=FALSE
compound=COc1ccc(-c2nc(-c3ccccc3)c(-c3ccccc3)[nH]2)cc1OC1CCCC1 category_label=FALSE
compound=CN(C1c2ccccc2Oc2ccccc21)S(=O)(=O)c1cc(Cl)ccc1Cl category_label=FALSE
compound=CCOC(=O)Nc1ccc2c(c1)C(=O)N(CCOC)c1ccccc1O2 category_label=FALSE
compound=O=C(O)c1ccccc1C(=O)c1cccc2c(F)cccc12 category_label=FALSE
compound=O=c1oc2c3ccc4cnccc4c3[nH]c2c2ccccc12 category_label=TRUE
compound=CCOc1ccc(-n2cc(-c3ccc(N(C)C)cc3)[n+]3c2CCCCC3)cc1 category_label=TRUE
compound=CCOC(=O)c1sc(Nc2ncccn2)nc1-c1ccccn1 category_label=FALSE
compound=COc1c(-c2c3sc(=O)[nH]c3nc3c2c(=O)[nH]n3C(C)C)cc2c(c1OC)OCO2 category_label=FALSE

###

Test system: SNB-75 CNS
assay comment: NCI-60 one-dose screen, 48 h
conditions used: 10 µM
About 83,000 compounds went through this panel and 20% of them were active in at least one assay; those are over-represented in the sample as a whole. The source made the active and inactive calls. How the source made its calls: active means growth percent below 10; inactive means the rest.
Possible outcomes: true (1) for active, false (0) for inactive

smiles_data=COC(=O)[C@]12CC[C@@H](C)[C@H](C)[C@@H]1C1=CC[C@@H]3[C@@]4(C)C/C(=N\O)[C@H](O)[C@@]5(C)COC(=C45)C[C@@]3(C)[C@]1(C)CC2 category_label="true (1)"
smiles_data=O=[N+]([O-])c1ccc(-c2nc(-c3ccccc3)c(-c3ccccc3)n2-c2ccccc2)cc1 category_label="false (0)"
smiles_data=COc1cc(CSc2nc3ccc(C)cc3c(=O)n2Cc2ccccc2)cc(OC)c1OC category_label="true (1)"
smiles_data=COc1ccc(-c2cc(/C=C/C(=O)c3ccc(N)cc3)[nH]n2)cc1OC category_label="false (0)"
smiles_data=N#Cc1ccc(-n2cnc(NC(=O)[C@H]3CCN(C#N)C3)c2)cc1 category_label="true (1)"
smiles_data=N=C(N)c1ccc(-c2ccc(-c3cccs3)s2)nc1 category_label="false (0)"
smiles_data=O=c1oc2c3ccc4cnccc4c3[nH]c2c2ccccc12 category_label="false (0)"
smiles_data=Cc1ccc(C)c2c1sc1nc3n[nH]c(N)c3c(=N)n12 category_label="false (0)"
smiles_data=CC(=O)[C@H]1CC[C@H]2[C@@H]3CC[C@@H]4CC=C(C=O)C[C@]4(C)[C@H]3CC[C@]12C category_label="false (0)"

###

Test system: KM12 colon
assay comment: NCI-60 one-dose screen, 48 h
conditions used: 10 µM
The panel holds about 83,000 compounds, 20% with a hit somewhere; the sample as a whole holds those more often. The source made the active and inactive calls. How the source made its calls: active means growth percent below 10; inactive means the rest.
Possible outcomes: active, inactive

molecule=COc1ccc(Cn2cc3c(c2-c2cc(OC)c(OC)c(OC)c2)CCc2cnoc2-3)cc1N category_label=active
molecule=CNC(=S)Sc1ccc([N+](=O)[O-])cc1[N+](=O)[O-] category_label=inactive
molecule=COc1cccc(-c2nnc(COc3ccc(-c4nc5ccccc5[nH]4)cc3OC)o2)c1 category_label=inactive
molecule=Cc1ccc(-n2nnc3c(sc4ccccc43)c2=O)cc1 category_label=inactive
molecule="CN(C)c1ccc2cc(-c3cc4c(oc3=O)-c3ccccc3OC4O)c(=O)oc2c1 (stereo unspecified)" category_label=active
molecule=C[C@H](NC(=O)[C@@H]1CSSC[C@@H](NC(=O)Cc2nc3ccccc3cc2O)C(=O)NCC(=O)N1C)c1ccccc1 category_label=inactive
molecule=COc1ccc(C(=O)/C=C/c2cc(-c3ccc4c(c3)OCO4)n[nH]2)cc1OC category_label=inactive
molecule=COc1cc2ccnc(C=O)c2cc1OC category_label=inactive
molecule=O=[N+]([O-])c1ccc(-c2nc(Cl)c3c(n2)CCCC3)o1 category_label=inactive
molecule=Cc1ccc([P+](Cc2ccccc2)(c2ccccc2)c2ccccc2)cc1 category_label=active
molecule=Cc1cc(C)c2c(Nc3ncnc4c3sc3nc(C)cc(C)c34)n[nH]c2n1 category_label=inactive
molecule=COC(=O)[C@]12CC[C@@H](C)[C@H](C)[C@@H]1C1=CC[C@@H]3[C@@]4(C)CC(=O)[C@H](O)[C@@](C)(CO)[C@@H]4C(=O)C[C@@]3(C)[C@]1(C)CC2 category_label=active
molecule=Cc1nc2scc(-c3ccc(Cl)cc3)n2c(=O)c1CCN1CCOCC1 category_label=inactive
molecule="COc1cc(C2C=C(c3ccc(Cl)cc3)N=C3SC(C)=CN32)cc(OC)c1OC (stereo unspecified)" category_label=inactive
molecule=C(=C\c1nc2ccccc2s1)/c1ccc(N2CCOCC2)s1 category_label=inactive
molecule=CCOC(=O)Nc1ccc2c(c1)C(=O)N(CC)c1ccccc1O2 category_label=inactive
molecule="CC(=O)OC1Oc2ccccc2-c2oc(=O)c(-c3ccc(F)cc3)cc21 (stereo unspecified)" category_label=inactive
molecule=O=C1/C(=C/c2ccc([N+](=O)[O-])s2)Oc2ccc(Cl)cc21 category_label=active
molecule=O=C(Nc1ccc(Oc2ccc(Nc3nc4ccccc4s3)cc2)cc1)Nc1ccc(Cl)c(Cl)c1 category_label=inactive
molecule=CC(C)c1[nH]nc2c(NCc3ccc(-c4ccccn4)cc3)nc(SCCN(C)C)nc12 category_label=active
molecule=CCCCOCCOCCOCc1cc2c(cc1Br)OCO2 category_label=inactive
